Taken from paper PMC9896412.

Target: invariant surface glycoprotein 75 (ISG75) (Trypanosoma brucei)
Assay: ITC (tag-free protein from S2 cells)
Type: binding
ASSAY_METRIC: pKd
Answer as the number alone; pKd is minus log10 of concentration in mol/L.

Given the compound Cc1cc(-c2ccc(/N=N/c3c(S(=O)(=O)O)cc4cc(S(=O)(=O)O)cc(N)c4c3O)c(C)c2)ccc1/N=N/c1c(S(=O)(=O)O)cc2cc(S(=O)(=O)O)cc(N)c2c1O and test system invariant surface glycoprotein 75 (ISG75) (Trypanosoma brucei), the measured pKd is 6.22
